- TEST_METHOD_NOTES: Elimination half life at a dose of 14.3 uM/kg, po
- Assay type: ADME, organism-based
- DETAILS: in vivo
ASSAY_ENDPOINT: half-life (h)
Number only, in h; omit the unit.

Look up half-life: CS(=O)(=O)c1ccc(-c2[nH]c(Cl)cc2-c2ccc(F)cc2)cc1
5.8

----------
- TEST_METHOD_NOTES: Elimination half life at a dose of 12.7 uM/kg, po
- Type: ADME, organism-based
- DETAILS: in vivo
ASSAY_ENDPOINT: half-life (h)
Number only, in h; omit the unit.

Look up half-life: CS(=O)(=O)c1ccc(-c2[nH]c(Br)cc2-c2ccc(F)cc2)cc1
9.9

----------
- TEST_METHOD_NOTES: Volume of distribution at a dose of 7.1 uM/kg, iv
- Assay type: ADME, organism-based
- DETAILS: in vivo
ASSAY_ENDPOINT: Vd (L/kg)
Number only, in L/kg; omit the unit.

Look up Vd: CS(=O)(=O)c1ccc(-c2[nH]c(Cl)cc2-c2ccc(F)cc2)cc1
9

----------
- TEST_METHOD_NOTES: Elimination half life at a dose of 7.1 uM/kg, iv
- Format: ADME, organism-based
- DETAILS: in vivo
ASSAY_ENDPOINT: half-life (h)
Number only, in h; omit the unit.

Look up half-life: CS(=O)(=O)c1ccc(-c2[nH]c(Cl)cc2-c2ccc(F)cc2)cc1
6.1

----------
- TARGET_DESC: Polyunsaturated fatty acid 5-lipoxygenase (Rattus norvegicus)
- Sequence (P12527 whole entry): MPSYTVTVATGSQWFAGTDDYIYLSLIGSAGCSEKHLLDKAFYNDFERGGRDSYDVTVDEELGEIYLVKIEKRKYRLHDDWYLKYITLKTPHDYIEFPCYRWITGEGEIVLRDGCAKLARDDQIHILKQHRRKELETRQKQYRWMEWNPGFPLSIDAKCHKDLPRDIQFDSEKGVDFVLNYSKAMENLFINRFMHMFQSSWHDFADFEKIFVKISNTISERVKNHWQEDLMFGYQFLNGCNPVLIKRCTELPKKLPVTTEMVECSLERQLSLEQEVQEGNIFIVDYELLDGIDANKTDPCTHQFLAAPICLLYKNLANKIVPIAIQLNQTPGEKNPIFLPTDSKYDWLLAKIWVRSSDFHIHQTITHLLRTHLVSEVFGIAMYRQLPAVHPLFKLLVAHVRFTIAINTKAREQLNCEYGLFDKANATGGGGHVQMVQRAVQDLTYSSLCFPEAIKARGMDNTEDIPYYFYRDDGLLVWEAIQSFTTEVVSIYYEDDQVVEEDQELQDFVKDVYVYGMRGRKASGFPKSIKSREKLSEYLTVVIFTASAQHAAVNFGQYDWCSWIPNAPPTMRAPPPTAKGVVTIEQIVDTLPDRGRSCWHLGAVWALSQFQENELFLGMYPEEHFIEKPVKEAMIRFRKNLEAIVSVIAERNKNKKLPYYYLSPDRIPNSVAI
ASSAY_ENDPOINT: pIC50
Conceptually, pIC50 converts a concentration in mol/L into minus its log10.

Look up pIC50: CS(=O)(=O)c1ccc(-c2[nH]c(SC#N)cc2-c2ccc(F)cc2)cc1
7.10

----------
TD50 for assorted compounds
- TEST_METHOD_NOTES: Gastrointestinal safety of a compound relative to indomethacin and piroxicam
- Format: ADME

Some solved entries appear below for comparison.
{"SMILES_REPRESENTATION": "CS(=O)(=O)c1ccc(-c2[nH]c(Cl)cc2-c2ccc(F)cc2)cc1", "TD50": "100 µmol/kg"}
{"SMILES_REPRESENTATION": "CS(=O)(=O)c1ccc(-c2[nH]c(C#N)cc2-c2ccc(F)cc2)cc1", "TD50": "> 381 µmol/kg"}
{"SMILES_REPRESENTATION": "CS(=O)(=O)c1ccc(-c2[nH]c(Br)cc2-c2ccc(F)cc2)cc1", "TD50": "95.9 µmol/kg"}
{"SMILES_REPRESENTATION": "Cn1c(Br)cc(-c2ccc(F)cc2)c1-c1ccc(S(C)(=O)=O)cc1", "TD50": "> 416 µmol/kg"}
{"SMILES_REPRESENTATION": "CS(=O)(=O)c1ccc(-c2[nH]c(Br)c(Br)c2-c2ccc(F)cc2)cc1", "TD50": "> 211 µmol/kg"}

# next compound below
Look up TD50: CS(=O)(=O)c1ccc(-c2[nH]c(SC#N)cc2-c2ccc(F)cc2)cc1
> 335 µmol/kg

----------
- TEST_METHOD_NOTES: Elimination half life at dose of 14.7 uM/kg oral route
- Format: ADME, organism-based
- DETAILS: in vivo
ASSAY_ENDPOINT: half-life
Returns: string containing the numeric result and its unit.

Look up half-life: CS(=O)(=O)c1ccc(-c2[nH]c(C#N)cc2-c2ccc(F)cc2)cc1
17.3 h

----------
- TEST_METHOD_NOTES: Volume of distribution at dose of 12.2 uM/kg, iv
- Format: ADME, organism-based
- DETAILS: in vivo
ASSAY_ENDPOINT: Vd (L/kg)
Number only, in L/kg; omit the unit.

Look up Vd: Cn1c(Br)cc(-c2ccc(F)cc2)c1-c1ccc(S(C)(=O)=O)cc1
10

----------
- TEST_METHOD_NOTES: Elimination half life at a dose of 6.3 uM/kg iv
- Assay type: ADME, organism-based
- DETAILS: in vivo
ASSAY_ENDPOINT: half-life
Returns: string containing the numeric result and its unit.

Look up half-life: CS(=O)(=O)c1ccc(-c2[nH]c(Br)cc2-c2ccc(F)cc2)cc1
10.2 h

----------
- TEST_METHOD_NOTES: Elimination half life at dose of 12.2uM/kg, po
- DETAILS: in vivo
ASSAY_ENDPOINT: half-life

Look up half-life: Cn1c(Br)cc(-c2ccc(F)cc2)c1-c1ccc(S(C)(=O)=O)cc1
258 min

----------
- TEST_METHOD_NOTES: Elimination half life at dose of 10.6 uM/kg orally
- Assay type: ADME, organism-based
- DETAILS: in vivo, po
ASSAY_ENDPOINT: half-life (h)
Number only, in h; omit the unit.

Look up half-life: CS(=O)(=O)c1ccc(-c2[nH]c(Br)c(Br)c2-c2ccc(F)cc2)cc1
47.5

----------
- TEST_METHOD_NOTES: Volume of distribution at a dose of 6.3 uM/kg, iv
- Type: ADME, organism-based
- DETAILS: in vivo
ASSAY_ENDPOINT: Vd
Returns: string containing the numeric result and its unit.

Look up Vd: CS(=O)(=O)c1ccc(-c2[nH]c(Br)cc2-c2ccc(F)cc2)cc1
3.5 L/kg

----------
- TEST_METHOD_NOTES: Volume of distribution at dose of 10.6 uM/kg intravenously
- Format: ADME, organism-based
- DETAILS: in vivo, iv
ASSAY_ENDPOINT: Vd
Returns: string containing the numeric result and its unit.

Look up Vd: CS(=O)(=O)c1ccc(-c2[nH]c(Br)c(Br)c2-c2ccc(F)cc2)cc1
4.3 L/kg

----------
- TEST_METHOD_NOTES: Elimination half life at dose of 14.7 uM/kg intravenous route
- Format: ADME, organism-based
- DETAILS: in vivo
ASSAY_ENDPOINT: half-life (h)
Number only, in h; omit the unit.

Look up half-life: CS(=O)(=O)c1ccc(-c2[nH]c(C#N)cc2-c2ccc(F)cc2)cc1
13.7

Values were extracted from ChEMBL document CHEMBL1127690.
